# Target Of Assay: Sodium channel protein type 5 subunit alpha (Homo sapiens, UniProt Q14524)
# Sequence (Q14524 whole entry): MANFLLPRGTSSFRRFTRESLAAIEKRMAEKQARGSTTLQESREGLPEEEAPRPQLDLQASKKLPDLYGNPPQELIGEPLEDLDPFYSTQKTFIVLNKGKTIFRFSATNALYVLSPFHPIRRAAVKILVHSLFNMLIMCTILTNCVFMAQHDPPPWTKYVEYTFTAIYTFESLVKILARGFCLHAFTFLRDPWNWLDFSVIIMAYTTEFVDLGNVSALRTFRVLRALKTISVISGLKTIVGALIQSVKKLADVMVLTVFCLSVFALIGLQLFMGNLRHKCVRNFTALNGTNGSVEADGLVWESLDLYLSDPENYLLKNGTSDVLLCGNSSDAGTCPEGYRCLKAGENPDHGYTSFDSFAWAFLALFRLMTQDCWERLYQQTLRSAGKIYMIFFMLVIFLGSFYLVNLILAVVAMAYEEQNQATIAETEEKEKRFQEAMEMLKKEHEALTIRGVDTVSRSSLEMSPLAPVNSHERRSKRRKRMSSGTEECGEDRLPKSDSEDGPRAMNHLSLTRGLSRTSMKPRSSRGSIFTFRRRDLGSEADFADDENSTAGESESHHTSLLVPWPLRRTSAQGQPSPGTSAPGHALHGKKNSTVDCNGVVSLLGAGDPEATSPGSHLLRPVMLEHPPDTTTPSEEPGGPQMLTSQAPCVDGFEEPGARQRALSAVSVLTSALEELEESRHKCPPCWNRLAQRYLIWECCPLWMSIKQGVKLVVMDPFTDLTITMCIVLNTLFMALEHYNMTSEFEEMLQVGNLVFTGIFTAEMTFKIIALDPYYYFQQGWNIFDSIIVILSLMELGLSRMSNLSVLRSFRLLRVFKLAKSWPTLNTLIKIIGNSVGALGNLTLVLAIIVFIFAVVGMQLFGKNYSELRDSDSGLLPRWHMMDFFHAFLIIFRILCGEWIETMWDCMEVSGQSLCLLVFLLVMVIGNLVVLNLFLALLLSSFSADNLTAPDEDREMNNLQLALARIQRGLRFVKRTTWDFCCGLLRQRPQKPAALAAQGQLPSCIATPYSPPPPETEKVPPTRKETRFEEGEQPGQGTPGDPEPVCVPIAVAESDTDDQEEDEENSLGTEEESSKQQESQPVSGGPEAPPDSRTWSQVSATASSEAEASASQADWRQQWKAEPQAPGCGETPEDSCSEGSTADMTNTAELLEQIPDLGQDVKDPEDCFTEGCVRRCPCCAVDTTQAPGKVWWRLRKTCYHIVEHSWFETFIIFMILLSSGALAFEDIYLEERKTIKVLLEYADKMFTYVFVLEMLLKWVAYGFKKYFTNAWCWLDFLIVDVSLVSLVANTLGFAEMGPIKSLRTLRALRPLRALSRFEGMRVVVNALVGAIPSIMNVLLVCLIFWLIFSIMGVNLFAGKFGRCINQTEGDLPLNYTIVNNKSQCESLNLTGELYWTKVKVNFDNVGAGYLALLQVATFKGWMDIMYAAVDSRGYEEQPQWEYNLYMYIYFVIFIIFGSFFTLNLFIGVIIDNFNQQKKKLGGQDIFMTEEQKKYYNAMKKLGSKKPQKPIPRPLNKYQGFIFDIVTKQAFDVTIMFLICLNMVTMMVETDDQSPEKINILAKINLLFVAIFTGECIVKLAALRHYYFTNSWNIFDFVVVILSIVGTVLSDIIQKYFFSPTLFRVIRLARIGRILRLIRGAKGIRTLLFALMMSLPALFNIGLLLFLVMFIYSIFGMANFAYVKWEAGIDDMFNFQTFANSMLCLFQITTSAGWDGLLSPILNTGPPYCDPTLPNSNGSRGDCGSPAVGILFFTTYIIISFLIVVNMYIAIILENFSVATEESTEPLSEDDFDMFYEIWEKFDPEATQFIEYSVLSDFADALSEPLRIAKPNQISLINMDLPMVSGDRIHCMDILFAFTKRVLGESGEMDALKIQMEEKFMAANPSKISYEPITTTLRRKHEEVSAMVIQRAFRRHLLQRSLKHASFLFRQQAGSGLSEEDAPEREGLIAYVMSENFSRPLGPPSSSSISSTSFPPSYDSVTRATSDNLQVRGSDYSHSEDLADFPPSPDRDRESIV
# Run Description: Inhibition of human NaV1.5 by IonWorks quattro automated electrophysiology assay
pIC50: −log10 of the molar value.
This listing pairs compounds with measured pIC50.
Experimental Readout: pIC50

>>> print(df.to_string())
                                    compound  rel  readout_number
 0  O=C(c1ccccc1)c1ccccc1OCC(O)CN1CCC(N2Cc3ccccc3C2=O)CC1 (stereo unspecified)    =            4.62
 1  O=C1CCc2c(cccc2C2CCN(CC(O)COc3ccccc3C(=O)c3ccccc3)CC2)N1 (stereo unspecified)    =            4.74
 2  O=C(c1ccccc1)c1ccccc1OCC(O)CN1CCC(n2c(=O)oc3ccccc32)CC1 (stereo unspecified)    =            5.47
 3  O=C(c1ccccc1)c1ccccc1OCC(O)CN1CCN(c2cccc3[nH]c(=O)oc23)CC1 (stereo unspecified)    <            4.48
 4  O=C1c2ccccc2CN1C1CCN(CC(O)COc2ccccc2)CC1 (stereo unspecified)    =            4.42
 5  O=C1c2ccccc2CN1C1CCN(CC(O)COc2cccc(C(F)(F)F)c2)CC1 (stereo unspecified)    =            5.36
 6  O=C(c1ccccc1)c1ccccc1OCC(O)CN1CCC(C(=O)Nc2ccccc2)CC1 (stereo unspecified)    =            5.72
 7  O=C(c1ccccc1)c1ccccc1OCC(O)CN1CCC(N2C(=O)COc3ccccc32)CC1 (stereo unspecified)    =            5.28
 8  O=C1c2ccccc2CN1C1CCN(CC(O)COCc2ccc(C(F)(F)F)cc2)CC1 (stereo unspecified)    =            5.52
 9  O=C(c1ccccc1)c1ccc(OCC(O)CN2CCC(N3Cc4ccccc4C3=O)CC2)cc1 (stereo unspecified)    =            5.92
10  O=C1COc2c(cccc2C2CCN(CC(O)COc3ccccc3C(=O)c3ccccc3)CC2)N1 (stereo unspecified)    =            5.15
11  O=C(NC1CCN(CC(O)COc2ccc(C(F)(F)F)cc2)CC1)c1ccccc1 (stereo unspecified)    =            5.96
12  O=C1CCc2c(cccc2N2CCN(CC(O)COc3ccccc3C(=O)c3ccccc3)CC2)N1 (stereo unspecified)    =            4.77
13  O=C(c1ccccc1)c1ccccc1OCC(O)CN1CCC(N2C(=O)Cc3ccccc32)CC1 (stereo unspecified)    =            4.48
14  COc1cc(C(F)(F)F)ccc1COCC(O)CN1CCC(C(=O)Nc2ccccc2)CC1 (stereo unspecified)    =            4.80
15  COc1cc(C(F)(F)F)ccc1COCC(O)CN1CCC(N2Cc3ccccc3C2=O)CC1.O=C(O)/C=C/C(=O)O (stereo unspecified)    =            5.21

----------
This listing pairs compounds with measured Fu.
# Tested on: Plasma
# Run Description: Fraction unbound in mouse plasma
# Type: ADME, cell-free
Experimental Readout: Fu (%)

>>> print(df.to_string())
                                   compound  target_of_assay  unit_string  readout_number
0  COc1cc(C(F)(F)F)ccc1COCC(O)CN1CCC(C(=O)Nc2ccccc2)CC1 (stereo not drawn)           Plasma            %            4.18
1  COc1cc(C(F)(F)F)ccc1COCC(O)CN1CCC(N2Cc3ccccc3C2=O)CC1.O=C(O)/C=C/C(=O)O (stereo not drawn)           Plasma            %            5.55
2  O=C(c1ccccc1)c1cccc(OCC(O)CN2CCC(N3Cc4ccccc4C3=O)CC2)c1 (stereo not drawn)           Plasma            %            1.99

----------
# Target Of Assay: Sodium channel protein type 1 subunit alpha (Mus musculus)
# Run Description: Inhibition of mouse NaV1.1 by IonWorks quattro automated electrophysiology assay
pIC50: −log10 of the molar value.
This listing pairs molecules with measured pIC50.
Experimental Readout: pIC50

>>> df
                                   molecule  readout_number
0  Cc1cccc(C)c1OCC(C)N.Cl (stereo unspecified) [MEXILETINE HYDROCHLORIDE]            4.68
1  O=C(c1ccccc1)c1cccc(OCC(O)CN2CCC(N3Cc4ccccc4C3=O)CC2)c1 (stereo unspecified)            6.16
2  COc1cc(C(F)(F)F)ccc1COCC(O)CN1CCC(N2Cc3ccccc3C2=O)CC1.O=C(O)/C=C/C(=O)O (stereo unspecified)            6.17
3  COc1ccccc1OCC(O)CN1CCC(N2Cc3ccccc3C2=O)CC1 (stereo unspecified)            4.47
4  O=C(c1ccccc1)c1ccccc1OCC(O)CN1CCC(N2Cc3ccccc3C2=O)CC1 (stereo unspecified)            5.51
5  COc1cc(C(F)(F)F)ccc1COCC(O)CN1CCC(C(=O)Nc2ccccc2)CC1 (stereo unspecified)            5.62

----------
# Target Of Assay: Sodium channel protein type 9 subunit alpha (Homo sapiens, UniProt Q15858)
# Sequence (Q15858 whole entry): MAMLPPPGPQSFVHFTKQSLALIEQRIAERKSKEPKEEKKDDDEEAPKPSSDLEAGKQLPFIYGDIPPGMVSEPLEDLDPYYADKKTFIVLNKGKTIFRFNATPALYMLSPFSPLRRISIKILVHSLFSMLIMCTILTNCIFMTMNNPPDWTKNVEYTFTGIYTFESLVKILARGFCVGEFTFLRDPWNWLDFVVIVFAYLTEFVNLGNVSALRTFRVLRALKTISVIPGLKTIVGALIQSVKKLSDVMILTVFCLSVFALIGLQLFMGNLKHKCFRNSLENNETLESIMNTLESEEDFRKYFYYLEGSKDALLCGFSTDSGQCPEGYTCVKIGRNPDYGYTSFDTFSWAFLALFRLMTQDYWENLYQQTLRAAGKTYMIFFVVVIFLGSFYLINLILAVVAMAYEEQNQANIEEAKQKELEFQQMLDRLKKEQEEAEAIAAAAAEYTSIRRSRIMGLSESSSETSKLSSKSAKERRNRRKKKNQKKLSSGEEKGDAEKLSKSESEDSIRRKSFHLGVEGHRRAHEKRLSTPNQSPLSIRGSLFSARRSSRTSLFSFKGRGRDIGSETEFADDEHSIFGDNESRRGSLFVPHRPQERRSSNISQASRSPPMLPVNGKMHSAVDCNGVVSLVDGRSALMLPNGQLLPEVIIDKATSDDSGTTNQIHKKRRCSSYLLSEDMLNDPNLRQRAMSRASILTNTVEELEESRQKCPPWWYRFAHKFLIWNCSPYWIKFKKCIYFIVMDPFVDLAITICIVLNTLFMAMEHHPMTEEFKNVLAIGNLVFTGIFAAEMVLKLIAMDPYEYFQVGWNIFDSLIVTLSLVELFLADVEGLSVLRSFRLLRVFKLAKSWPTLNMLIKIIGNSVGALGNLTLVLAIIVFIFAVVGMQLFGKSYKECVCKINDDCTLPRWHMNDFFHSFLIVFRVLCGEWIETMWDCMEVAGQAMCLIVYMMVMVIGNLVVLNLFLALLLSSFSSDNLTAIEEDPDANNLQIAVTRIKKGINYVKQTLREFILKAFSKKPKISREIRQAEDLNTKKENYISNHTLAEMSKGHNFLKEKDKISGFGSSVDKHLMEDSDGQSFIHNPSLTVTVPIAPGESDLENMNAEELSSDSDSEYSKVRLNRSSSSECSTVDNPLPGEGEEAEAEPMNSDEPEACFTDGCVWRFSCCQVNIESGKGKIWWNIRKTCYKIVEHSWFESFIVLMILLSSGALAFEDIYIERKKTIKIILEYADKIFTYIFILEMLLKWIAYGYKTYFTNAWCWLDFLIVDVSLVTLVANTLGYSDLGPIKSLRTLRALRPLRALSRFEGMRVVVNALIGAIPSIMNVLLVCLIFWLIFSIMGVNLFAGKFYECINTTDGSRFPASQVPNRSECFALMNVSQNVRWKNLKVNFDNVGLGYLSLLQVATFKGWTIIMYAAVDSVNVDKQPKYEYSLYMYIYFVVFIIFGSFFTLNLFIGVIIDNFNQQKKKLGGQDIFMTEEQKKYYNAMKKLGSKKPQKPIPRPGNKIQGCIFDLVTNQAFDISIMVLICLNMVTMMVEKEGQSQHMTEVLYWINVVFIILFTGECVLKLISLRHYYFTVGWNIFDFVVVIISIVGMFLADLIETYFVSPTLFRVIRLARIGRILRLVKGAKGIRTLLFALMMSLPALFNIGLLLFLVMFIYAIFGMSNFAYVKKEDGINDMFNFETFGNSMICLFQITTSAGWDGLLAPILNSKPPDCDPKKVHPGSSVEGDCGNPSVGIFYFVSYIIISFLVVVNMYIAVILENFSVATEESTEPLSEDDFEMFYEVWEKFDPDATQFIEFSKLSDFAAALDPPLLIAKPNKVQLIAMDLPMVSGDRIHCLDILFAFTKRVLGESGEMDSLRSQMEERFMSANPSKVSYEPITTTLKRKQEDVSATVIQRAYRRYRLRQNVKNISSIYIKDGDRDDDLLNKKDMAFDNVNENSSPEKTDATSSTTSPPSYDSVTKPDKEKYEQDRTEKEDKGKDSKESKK
# Run Description: Inhibition of human NaV1.7 by IonWorks quattro automated electrophysiology assay
pIC50: −log10 of the molar value.
This listing pairs compounds with measured pIC50.
Experimental Readout: pIC50

In [3]: df
Out[3]:
                                   compound  readout_number
0  O=C1c2ccccc2CN1C1CCN(CC(O)COCc2ccc(C(F)(F)F)cc2)CC1 (stereo not given)            5.96
1  O=C(c1ccccc1)c1ccccc1OCC(O)CN1CCC(n2c(=O)oc3ccccc32)CC1 (stereo not given)            5.74
2  O=C1COc2c(cccc2C2CCN(CC(O)COc3ccccc3C(=O)c3ccccc3)CC2)N1 (stereo not given)            6.11
3  O=C1COc2c(cccc2N2CCN(CC(O)COc3ccccc3C(=O)c3ccccc3)CC2)N1 (stereo not given)            5.41
4  O=C1c2ccccc2CN1C1CCN(CC(O)COc2ccccc2C(F)(F)F)CC1 (stereo not given)            5.55

----------
This listing pairs compounds with measured pIC50.
# Target Of Assay: Sodium channel protein type 1 subunit alpha (Homo sapiens, UniProt P35498)
# Run Description: Inhibition of human NaV1.1 by IonWorks quattro automated electrophysiology assay
pIC50: −log10 of the molar value.
Experimental Readout: pIC50

                                   compound                           target_of_assay  experimental_readout  rel  readout_number
0  O=C(c1ccccc1)c1ccccc1OCC(O)CN1CCN(c2cccc3[nH]c(=O)oc23)CC1 (stereo not drawn)  Sodium channel protein type 1 subunit alpha (Homo sapiens, UniProt P35498)                 pIC50    <            4.48
1  COc1cc(C(F)(F)F)ccc1OCC(O)CN1CCC(N2Cc3ccccc3C2=O)CC1 (stereo not drawn)  Sodium channel protein type 1 subunit alpha (Homo sapiens, UniProt P35498)                 pIC50    =            6.04
2  O=C(c1ccccc1)c1cccc(OCC(O)CN2CCC(N3Cc4ccccc4C3=O)CC2)c1 (stereo not drawn)  Sodium channel protein type 1 subunit alpha (Homo sapiens, UniProt P35498)                 pIC50    =            6.04
3  O=C1c2ccccc2CN1C1CCN(CC(O)COc2cccc(C(F)(F)F)c2)CC1 (stereo not drawn)  Sodium channel protein type 1 subunit alpha (Homo sapiens, UniProt P35498)                 pIC50    =            5.92
4  COc1ccc(OCC(O)CN2CCC(N3Cc4ccccc4C3=O)CC2)cc1 (stereo not drawn)  Sodium channel protein type 1 subunit alpha (Homo sapiens, UniProt P35498)                 pIC50    =            5.57
5  O=C(c1ccccc1)c1ccccc1OCC(O)CN1CCC(n2c(=O)oc3ccccc32)CC1 (stereo not drawn)  Sodium channel protein type 1 subunit alpha (Homo sapiens, UniProt P35498)                 pIC50    =            5.27
6  COc1cc(C(F)(F)F)ccc1COCC(O)CN1CCC(C(=O)Nc2ccccc2)CC1 (stereo not drawn)  Sodium channel protein type 1 subunit alpha (Homo sapiens, UniProt P35498)                 pIC50    =            5.48
7  O=C(c1ccccc1)c1ccc(OCC(O)CN2CCC(N3Cc4ccccc4C3=O)CC2)cc1 (stereo not drawn)  Sodium channel protein type 1 subunit alpha (Homo sapiens, UniProt P35498)                 pIC50    =            6.17
